Consider the following molecules; for each one, report its Cmax.
test: Cmax in Sprague-Dawley rat at 5 mg/kg, po; assay type: ADME, organism-based; design: dose 5 mg/kg, route oral; settings: in vivo
API: value field is a number in ng/mL; no unit string.

Task: Please give measured Cmax of the following entry: CC(C)CC[C@@]1(NCc2ccccc2)C(=O)C(C2=NS(=O)(=O)c3cc(NS(C)(=O)=O)ccc3N2)=C(O)c2ccccc21
Result: 80

Task: Please give measured Cmax of the following entry: Cc1cccc(C)c1CNC1(CCC(C)(C)C)C(=O)C(C2=NS(=O)(=O)c3cc(NS(C)(=O)=O)ccc3N2)=C(O)c2ccccc21 (configuration not stated)
Result: 460

Task: Please give measured Cmax of the following entry: Cc1cccc(CNC2(CCC(C)(C)C)C(=O)C(C3=NS(=O)(=O)c4cc(NS(C)(=O)=O)ccc4N3)=C(O)c3ccccc32)n1 (configuration not stated)
Result: 150

Task: Please give measured Cmax of the following entry: CC(C)(C)CCC1(NCc2ccc3ccccc3c2)C(=O)C(C2=NS(=O)(=O)c3cc(NS(C)(=O)=O)ccc3N2)=C(O)c2ccccc21 (configuration not stated)
Result: 180

Task: Please give measured Cmax of the following entry: COc1ccccc1CNC1(CCC(C)(C)C)C(=O)C(C2=NS(=O)(=O)c3cc(NS(C)(=O)=O)ccc3N2)=C(O)c2ccccc21 (configuration not stated)
Result: 400

Task: Please give measured Cmax of the following entry: CC(C)(C)CCC1(NCc2ccccc2N)C(=O)C(C2=NS(=O)(=O)c3cc(NS(C)(=O)=O)ccc3N2)=C(O)c2ccccc21 (configuration not stated)
Result: 80

Task: Please give measured Cmax of the following entry: Cc1cccc(C)c1CN[C@]1(CCC(C)(C)C)C(=O)C(C2=NS(=O)(=O)c3cc(NS(C)(=O)=O)ccc3N2)=C(O)c2ccccc21
Result: 620

* * *

test: Inhibition of HCV1a H77 NS5B assessed as [3H]UTP incorporation into RNA by scintillation counting; parameters: species or system Hepatitis C virus (isolate H77)
Consider the following molecules; for each one, report its IC50.
API: value field is a number in nM; no unit string.

Task: Please give measured IC50 of the following entry: COc1cccc(CNC2(CCC(C)C)C(=O)C(C3=NS(=O)(=O)c4cc(NS(C)(=O)=O)ccc4N3)=C(O)c3ccccc32)c1 (centres undefined)
Result: 14

Task: Please give measured IC50 of the following entry: CC(C)CC[C@@]1(NS(C)(=O)=O)C(=O)C(C2=NS(=O)(=O)c3cc(NS(C)(=O)=O)ccc3N2)=C(O)c2ccccc21
Result: 7

Task: Please give measured IC50 of the following entry: CC(C)(C)CCC1(NCc2ccc(C#N)cc2)C(=O)C(C2=NS(=O)(=O)c3cc(NS(C)(=O)=O)ccc3N2)=C(O)c2ccccc21 (centres undefined)
Result: 13

Task: Please give measured IC50 of the following entry: CC(C)CCC1(NCc2ccccc2)C(=O)C(C2=NS(=O)(=O)c3cc(NS(C)(=O)=O)ccc3N2)=C(O)c2ccccc21 (centres undefined)
Result: 19

Task: Please give measured IC50 of the following entry: CC(C)(C)CCC1(NCc2ccccc2)C(=O)C(C2=NS(=O)(=O)c3cc(NS(C)(=O)=O)ccc3N2)=C(O)c2ccccc21 (centres undefined)
Result: 17

Task: Please give measured IC50 of the following entry: CC(C)(C)CCC1(NCc2csc3ccccc23)C(=O)C(C2=NS(=O)(=O)c3cc(NS(C)(=O)=O)ccc3N2)=C(O)c2ccccc21 (centres undefined)
Result: 19

Task: Please give measured IC50 of the following entry: CC(C)(C)CCC1(NCc2ccccc2N)C(=O)C(C2=NS(=O)(=O)c3cc(NS(C)(=O)=O)ccc3N2)=C(O)c2ccccc21 (centres undefined)
Result: 17

Task: Please give measured IC50 of the following entry: CC(C)(C)CCC1(NC(=O)c2ccccc2)C(=O)C(C2=NS(=O)(=O)c3cc(NS(C)(=O)=O)ccc3N2)=C(O)c2ccccc21 (centres undefined)
Result: 151

Task: Please give measured IC50 of the following entry: CON[C@]1(CCC(C)C)C(=O)C(C2=NS(=O)(=O)c3cc(NS(C)(=O)=O)ccc3N2)=C(O)c2ccccc21
Result: 6

Task: Please give measured IC50 of the following entry: Cc1cccc(CNC2(CCC(C)(C)C)C(=O)C(C3=NS(=O)(=O)c4cc(NS(C)(=O)=O)ccc4N3)=C(O)c3ccccc32)n1 (centres undefined)
Result: 15

Task: Please give measured IC50 of the following entry: CC(C)CCC1(NS(C)(=O)=O)C(=O)C(C2=NS(=O)(=O)c3cc(NS(C)(=O)=O)ccc3N2)=C(O)c2ccccc21 (centres undefined)
Result: 24

Task: Please give measured IC50 of the following entry: CC(C)(C)CCC1(NCc2ccc(O)cc2)C(=O)C(C2=NS(=O)(=O)c3cc(NS(C)(=O)=O)ccc3N2)=C(O)c2ccccc21 (centres undefined)
Result: 20

Task: Please give measured IC50 of the following entry: COc1ccc(CNC2(CCC(C)(C)C)C(=O)C(C3=NS(=O)(=O)c4cc(NS(C)(=O)=O)ccc4N3)=C(O)c3ccccc32)cc1 (centres undefined)
Result: 13

Task: Please give measured IC50 of the following entry: CC(C)CCC1(NC(N)=O)C(=O)C(C2=NS(=O)(=O)c3cc(NS(C)(=O)=O)ccc3N2)=C(O)c2ccccc21 (centres undefined)
Result: 27

* * *

experiment: Ratio of drug level in liver to plasma of Sprague-Dawley rat at 5 mg/kg, po after 1 hr; type: ADME, organism-based; design: dose 5 mg/kg, route oral; conditions: liver and plasma
recorded.endpoint: Kp at 1 h
When you answer, write just the number.

Task: Please give measured Kp at 1 h of the following entry: CC(C)CC[C@@]1(NCc2ccccc2)C(=O)C(C2=NS(=O)(=O)c3cc(NS(C)(=O)=O)ccc3N2)=C(O)c2ccccc21
Result: 12

Task: Please give measured Kp at 1 h of the following entry: Cc1cccc(C)c1CN[C@]1(CCC(C)(C)C)C(=O)C(C2=NS(=O)(=O)c3cc(NS(C)(=O)=O)ccc3N2)=C(O)c2ccccc21
Result: 12

* * *

test: Oral bioavailability in Sprague-Dawley rat at 5 mg/kg; assay type: ADME, organism-based; details: in vivo
recorded.endpoint: bioavailability (%)
API: value field is a number in %; no unit string.

Task: Please give measured bioavailability of the following entry: CC(C)CC[C@@]1(NCc2ccccc2)C(=O)C(C2=NS(=O)(=O)c3cc(NS(C)(=O)=O)ccc3N2)=C(O)c2ccccc21
Result: 13.3

Task: Please give measured bioavailability of the following entry: COc1ccccc1CNC1(CCC(C)(C)C)C(=O)C(C2=NS(=O)(=O)c3cc(NS(C)(=O)=O)ccc3N2)=C(O)c2ccccc21 (stereo unspecified)
Result: 48

Task: Please give measured bioavailability of the following entry: CC(C)CC[C@@]1(NS(C)(=O)=O)C(=O)C(C2=NS(=O)(=O)c3cc(NS(C)(=O)=O)ccc3N2)=C(O)c2ccccc21
Result: 0

Task: Please give measured bioavailability of the following entry: Cc1cccc(C)c1CN[C@]1(CCC(C)(C)C)C(=O)C(C2=NS(=O)(=O)c3cc(NS(C)(=O)=O)ccc3N2)=C(O)c2ccccc21
Result: 55.9

Task: Please give measured bioavailability of the following entry: CC(C)(C)CCC1(NCc2ccccc2N)C(=O)C(C2=NS(=O)(=O)c3cc(NS(C)(=O)=O)ccc3N2)=C(O)c2ccccc21 (stereo unspecified)
Result: 8.9

Task: Please give measured bioavailability of the following entry: CC(C)(C)CCC1(NCc2ccc3ccccc3c2)C(=O)C(C2=NS(=O)(=O)c3cc(NS(C)(=O)=O)ccc3N2)=C(O)c2ccccc21 (stereo unspecified)
Result: 28.1

Task: Please give measured bioavailability of the following entry: CON[C@]1(CCC(C)C)C(=O)C(C2=NS(=O)(=O)c3cc(NS(C)(=O)=O)ccc3N2)=C(O)c2ccccc21
Result: 34.1

Task: Please give measured bioavailability of the following entry: CC(C)CC[C@@]1(N)C(=O)C(C2=NS(=O)(=O)c3cc(NS(C)(=O)=O)ccc3N2)=C(O)c2ccccc21
Result: 0

Task: Please give measured bioavailability of the following entry: Cc1cccc(CNC2(CCC(C)(C)C)C(=O)C(C3=NS(=O)(=O)c4cc(NS(C)(=O)=O)ccc4N3)=C(O)c3ccccc32)n1 (stereo unspecified)
Result: 33.8

Task: Please give measured bioavailability of the following entry: Cc1ccc(CNC2(CCC(C)(C)C)C(=O)C(C3=NS(=O)(=O)c4cc(NS(C)(=O)=O)ccc4N3)=C(O)c3ccccc32)cn1 (stereo unspecified)
Result: 0

Task: Please give measured bioavailability of the following entry: Cc1cccc(C)c1CNC1(CCC(C)(C)C)C(=O)C(C2=NS(=O)(=O)c3cc(NS(C)(=O)=O)ccc3N2)=C(O)c2ccccc21 (stereo unspecified)
Result: 53.7

* * *

assay: Half life in Sprague-Dawley rat at 5 mg/kg, iv; assay type: ADME, organism-based; parameters: dose 5 mg/kg, route intravenous; details: in vivo
recorded.endpoint: half-life (min)
API: value field is a number in min; no unit string.

Task: Please give measured half-life of the following entry: CC(C)CC[C@@]1(NCc2ccccc2)C(=O)C(C2=NS(=O)(=O)c3cc(NS(C)(=O)=O)ccc3N2)=C(O)c2ccccc21
Result: 102

Task: Please give measured half-life of the following entry: CON[C@]1(CCC(C)C)C(=O)C(C2=NS(=O)(=O)c3cc(NS(C)(=O)=O)ccc3N2)=C(O)c2ccccc21
Result: 36

Task: Please give measured half-life of the following entry: CC(C)CC[C@@]1(NS(C)(=O)=O)C(=O)C(C2=NS(=O)(=O)c3cc(NS(C)(=O)=O)ccc3N2)=C(O)c2ccccc21
Result: 12

Task: Please give measured half-life of the following entry: CC(C)(C)CCC1(NCc2ccc3ccccc3c2)C(=O)C(C2=NS(=O)(=O)c3cc(NS(C)(=O)=O)ccc3N2)=C(O)c2ccccc21 (centres undefined)
Result: 132
